The values you see were collected from paper PMC4710522.

# SYSTEM_TESTED: KDR_h (Homo sapiens)
# Sequence (P35968 20-1356): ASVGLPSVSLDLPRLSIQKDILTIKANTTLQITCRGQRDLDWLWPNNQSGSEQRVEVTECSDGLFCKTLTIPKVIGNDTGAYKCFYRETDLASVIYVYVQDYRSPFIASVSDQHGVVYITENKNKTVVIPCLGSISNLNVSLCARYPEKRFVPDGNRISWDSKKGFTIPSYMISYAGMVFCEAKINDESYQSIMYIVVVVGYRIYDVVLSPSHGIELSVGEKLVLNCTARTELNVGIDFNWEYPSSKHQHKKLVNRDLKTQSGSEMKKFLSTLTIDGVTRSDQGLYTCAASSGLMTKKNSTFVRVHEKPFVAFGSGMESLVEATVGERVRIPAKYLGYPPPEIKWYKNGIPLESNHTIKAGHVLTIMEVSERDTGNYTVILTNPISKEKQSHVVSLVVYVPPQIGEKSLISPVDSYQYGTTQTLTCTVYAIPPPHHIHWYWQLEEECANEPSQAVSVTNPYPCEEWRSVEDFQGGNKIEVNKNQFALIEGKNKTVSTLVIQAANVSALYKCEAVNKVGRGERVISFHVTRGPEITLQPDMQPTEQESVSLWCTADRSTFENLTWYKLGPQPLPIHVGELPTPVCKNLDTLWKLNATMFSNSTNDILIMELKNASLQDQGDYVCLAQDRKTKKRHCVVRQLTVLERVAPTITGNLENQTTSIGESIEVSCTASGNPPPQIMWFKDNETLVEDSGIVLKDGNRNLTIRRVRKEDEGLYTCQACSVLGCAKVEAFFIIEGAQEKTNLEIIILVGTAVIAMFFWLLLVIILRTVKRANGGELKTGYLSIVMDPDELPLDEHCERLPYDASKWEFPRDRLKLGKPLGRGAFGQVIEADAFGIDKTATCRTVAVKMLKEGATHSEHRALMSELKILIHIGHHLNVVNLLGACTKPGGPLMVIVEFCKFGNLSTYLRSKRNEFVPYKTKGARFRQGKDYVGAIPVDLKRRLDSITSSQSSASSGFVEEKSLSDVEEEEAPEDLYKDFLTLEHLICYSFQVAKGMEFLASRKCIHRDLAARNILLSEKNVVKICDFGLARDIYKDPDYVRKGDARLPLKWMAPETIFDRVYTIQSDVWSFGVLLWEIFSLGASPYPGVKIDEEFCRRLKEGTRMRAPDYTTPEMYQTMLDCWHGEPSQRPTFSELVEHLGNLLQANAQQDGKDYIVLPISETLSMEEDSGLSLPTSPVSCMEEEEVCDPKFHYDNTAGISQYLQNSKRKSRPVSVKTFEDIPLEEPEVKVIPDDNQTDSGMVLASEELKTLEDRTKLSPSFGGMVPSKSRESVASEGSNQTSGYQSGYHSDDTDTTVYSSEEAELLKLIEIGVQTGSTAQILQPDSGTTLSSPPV
QUANTITY_NAME: IC50 (µM)
Give the value, in units of µM, as a plain number.

// returns IC50 for `c1cc(CC2CCOCC2)n2nc(Nc3ccc4c(NC5CCOCC5)n[nH]c4c3)nc2c1` with KDR_h (Homo sapiens); value = 0.185

* * *

# ASSAY_EXPLANATION: rat pharmacokinetics
# Type: in vivo
# MEASUREMENT_CONDITIONS: Sprague-Dawley, plasma, iv, i.v. 2 mg/kg, male rats, read-out: volume of distribution (Vss)
QUANTITY_NAME: Vd (L/kg)
Give your result in L/kg as a bare value.

Just so you know, measured Vd for c1cc(CC2CCOCC2)n2nc(Nc3ccc4c(NC5CCOCC5)n[nH]c4c3)nc2c1 [CC-509] came out at 2.8
